- experimental system: interaction between HDM2 and p53 (GST-hMDM2 (1-188) / biotinylated-p53 (1-83)) (Homo sapiens (Human), UniProt Q00987)
- Sequence (Q00987 1-188): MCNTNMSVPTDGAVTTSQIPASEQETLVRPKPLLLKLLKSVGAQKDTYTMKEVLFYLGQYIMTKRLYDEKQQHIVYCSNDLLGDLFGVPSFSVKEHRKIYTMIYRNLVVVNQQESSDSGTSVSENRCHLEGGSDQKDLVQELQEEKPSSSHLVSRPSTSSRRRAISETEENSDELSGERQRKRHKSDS
- assay: HTRF2 Assay (improved HTRF assay)
- Assay type: binding
- measurement context: read-out: HTRF2 IC50
reported property: IC50 (µM)

Below are worked cases with known answers.
{"compound": "CCC[C@H](CCC(=O)O)N1C(=O)[C@H](Cc2ccc(F)cc2)O[C@@H](c2ccc(Cl)cc2)[C@H]1c1ccc(Cl)cc1 (mixture of isomers)", "IC50 / µM": 1.33}
{"compound": "CCC[C@H](C(=O)NCC(N)=O)N1C(=O)[C@H](Cc2ccc(C#N)cc2)O[C@@H](c2ccc(Cl)cc2)[C@H]1c1ccc(Cl)cc1 (racemic)", "IC50 / µM": 0.745}
{"compound": "CS(=O)(=O)c1ccc(C[C@@H]2O[C@@H](c3ccc(Cl)cc3)[C@@H](c3ccc(Cl)cc3)N(c3cccnc3)C2=O)c(F)c1 (mixture of isomers)", "IC50 / µM": 20}

P = CS(=O)(=O)c1ccc(C[C@@H]2O[C@@H](c3ccc(Cl)cc3)[C@@H](c3ccc(Cl)cc3)N(c3cccnc3)C2=O)cc1 (racemic)
Q = O=C1[C@H](C[C@H](O)CO)O[C@@H](c2cccc(Cl)c2)[C@@H](c2ccc(Cl)cc2)N1CC1CC1 (racemic)
Consider entries P and Q . Which has the numerically lower IC50? Give the label of your selection. Q

Ref: patent US11407721B2
